measurement_notes: Microsomal stability screen, mouse
assay_conditions: 1 μM
Measured Mean remaining parent with NADPH (%) values are reported for all entries that follow.

{"columns": ["smiles_entry", "result"],
 "data": [
  ["N#Cc1ccc(NC(=O)c2cccc(S(=O)(=O)Cc3ccc(Cl)cc3)c2)cc1", "68%"],
  ["COc1ccc(N(C)S(=O)(=O)c2cccc(C(=O)Nc3ccc(C#N)cc3)c2)cc1", "2%"]
]}

Entry under review: "CC(=O)c1ccc(N(C)S(=O)(=O)c2cccc(C(=O)Nc3ccc(Cl)cc3)c2)cc1" . Reported Mean remaining parent with NADPH (%)? 0%

And "CN(c1ccc(Cl)cc1)S(=O)(=O)c1cccc(C(=O)Nc2ccc(S(C)(=O)=O)cc2)c1" ? 4%

// query: "CC(=O)c1ccc(N(C)S(=O)(=O)c2cccc(C(=O)Nc3ccc(Cl)cn3)c2)cc1" 0%

Further, for "CN(c1ccc(Cl)cc1)S(=O)(=O)c1cccc(C(=O)Nc2ccc(C#N)cn2)c1" ? 1%

---

Consider the following molecules and their measured inhibition at 10 µM readings.
system_under_test: SIRT2 (Homo sapiens, UniProt Q8IXJ6)
Construct: recombinant active enzymes SIRT1, SIRT2, and the catalytically active fragment of SIRT3
Sequence (Q8IXJ6 whole entry, the tested form may be a part): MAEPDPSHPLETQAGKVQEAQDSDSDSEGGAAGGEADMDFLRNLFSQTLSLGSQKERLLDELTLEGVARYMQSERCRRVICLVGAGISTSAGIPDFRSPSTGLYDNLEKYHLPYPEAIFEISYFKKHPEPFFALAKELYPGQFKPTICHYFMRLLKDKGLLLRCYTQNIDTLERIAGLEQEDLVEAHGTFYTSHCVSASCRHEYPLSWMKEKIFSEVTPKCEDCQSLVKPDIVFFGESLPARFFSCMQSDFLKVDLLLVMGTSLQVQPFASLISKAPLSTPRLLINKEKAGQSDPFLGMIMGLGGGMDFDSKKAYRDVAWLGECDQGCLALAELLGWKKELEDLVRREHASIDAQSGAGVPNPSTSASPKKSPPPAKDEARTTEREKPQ
measurement_notes: Fluor-de-Lys biochemical sirtuin deacetylation assay, SIRT2
assay_conditions: 10 μM
Numbers only here, please. The scale is %.

{"columns": ["molecule", "inhibition at 10 µM [%]"],
 "data": [
  ["COc1ccc(COc2cccc(C(=O)Nc3ccc(C#N)cn3)c2)cc1 [Compound 216d]", 8]
]}

Requested field: inhibition at 10 µM. Item: COc1ccc(COc2cccc(C(=O)Nc3ccc([S+](C)[O-])cc3)c2)cc1 (stereo not shown) [Compound 216h] 50

---

system_under_test: SIRT2 (Homo sapiens, UniProt Q8IXJ6)
Construct: recombinant active enzymes SIRT1, SIRT2, and the catalytically active fragment of SIRT3
measurement_notes: Fluor-de-Lys biochemical sirtuin deacetylation assay, SIRT2
assay_conditions: 10 μM
Values of inhibition at 10 µM greater than or equal to 30% map to True; values below map to False.

Observe how each entry below is paired with its result.
{"columns": ["compound", "qualitative_label"],
 "data": [
  ["Nc1cccc(NC(=O)c2cccc(S(=O)(=O)N3CCCCCC3)c2)c1 [Compound 203i]", "True"],
  ["N#Cc1ccc(COc2cc(O)cc(C(=O)Nc3ccc(C#N)cc3)c2)cc1 [Compound 216w]", "False"],
  ["CC(=O)c1ccc(COc2cccc(C(=O)Nc3ccc(C#N)cc3)c2)cc1 [Compound 216Ar]", "False"],
  ["CC(=O)c1ccc(C(C)(C)Oc2cccc(C(=O)Nc3ccc(C(F)(F)F)cc3)c2)cc1 [Compound 216Au]", "False"],
  ["N#Cc1ccc(NC(=O)c2cccc(OCc3cccc(F)c3F)c2)cc1 [Compound 216Aa]", "True"],
  ["CSc1ccc(COc2cccc(C(=O)Nc3ccc(C#N)cc3)c2)cc1 [Compound 216a]", "True"],
  ["CC(=O)c1ccc(N(C2CC2)S(=O)(=O)c2cccc(C(=O)Nc3ccc(C#N)cc3)c2)cc1 [Compound 203Aw]", "True"],
  ["CN(c1ccc(S(C)(=O)=O)cc1)S(=O)(=O)c1cccc(NC(=O)c2ccc([S+](C)[O-])cc2)c1 (stereo not shown) [Compound 207c]", "True"],
  ["CC(=O)c1ccc(C(C)(C)Oc2cccc(C(=O)Nc3ccc(Br)cc3)c2)cc1 [Compound 216At]", "True"],
  ["CN(c1ccc(S(C)(=O)=O)cc1)S(=O)(=O)c1cccc(NC(=O)c2ccc(Br)cc2)c1 [Compound 207b]", "True"]
]}

# next compound below
Exam item: decide whether the reported inhibition at 10 µM for N#Cc1ccc(NC(=O)c2cccc(SCc3ccc(F)cc3)c2)cc1 [Compound 211g] is at least 30%. True

---

measurement_notes: Microsomal intrinsic clearance, human
assay_conditions: human, microsomes, NADPH-dependent T1/2 (min)
outcome_measure: half-life at 1 μM (min)
Numbers only here, please. The scale is min.

Quick check: half-life at 1 μM of C[S+]([O-])c1ccc(NC(=O)c2cccc(SCc3ccc(Cl)cc3)c2)cc1 (stereo not shown) ? 9.6

---

measurement_notes: Plasma half life
assay_conditions: mouse, plasma
outcome_measure: half-life at 5 μM (h)
Give just the number in h; leave the unit off.

Which measured half-life at 5 μM value corresponds to C[S+]([O-])c1ccc(NC(=O)c2cccc(SCc3ccc(Cl)cc3)c2)cc1 (stereo not shown) ? 1.48

---

system_under_test: SIRT2 (Homo sapiens)
Construct: recombinant active enzymes SIRT1, SIRT2, and the catalytically active fragment of SIRT3
measurement_notes: Fluor-de-Lys biochemical sirtuin deacetylation assay, SIRT2
assay_conditions: 10 μM
Property: inhibition at 10 µM; scope: individual compounds
Unit % implied. Number only.

{"columns": ["compound", "system_under_test", "inhibition at 10 µM [%]"],
 "data": [
  ["N#Cc1ccc(COc2cncc(C(=O)Nc3ccc(C#N)cc3)c2)cc1 [Compound 216t]", "SIRT2 (Homo sapiens)", 0]
]}

Would you mind telling me what inhibition at 10 µM value was observed for COc1ccc(CSc2cc(C(=O)Nc3ccc(C#N)cc3)ccn2)cc1 [Compound 211f] ? 68

Then this compound: CC(=O)c1ccc(C(C)Oc2cccc(C(=O)Nc3ccc(Cl)cc3)c2)cc1 (stereo not drawn) [Compound 216Av] 89

---

measurement_notes: Microsomal intrinsic clearance, mouse
assay_conditions: mouse, microsomes, NADPH-dependent T1/2 (min)
outcome_measure: half-life at 1 μM

Requested field: half-life at 1 μM. Item: C[S+]([O-])c1ccc(NC(=O)c2cccc(SCc3ccc(Cl)cc3)c2)cc1 (stereo not shown) [Compound 182] 5.2 min

---

Recorded inhibition at 10 µM for the following compounds
system_under_test: SIRT2 (Homo sapiens, UniProt Q8IXJ6)
Construct: recombinant active enzymes SIRT1, SIRT2, and the catalytically active fragment of SIRT3
measurement_notes: Fluor-de-Lys biochemical sirtuin deacetylation assay, SIRT2
assay_conditions: 10 μM
Counter-ions that a name gives are not always drawn.
Your answer is read as %, so omit the unit and give the number.

{"columns": ["compound", "inhibition at 10 µM (%)"],
 "data": [
  ["O=C(Nc1ccc(C(F)(F)F)cc1)c1cncc(CN(Cc2ccc(F)c(F)c2)C2CC2)c1 [Compound 225v, hydrochloride]", 3],
  ["N#Cc1ccc(COc2cc(OC[C@@H](O)CO)cc(C(=O)Nc3ccc(C#N)cc3)c2)cc1 [Compound 216x]", 25],
  ["N#Cc1ccc(NC(=O)c2cccc(NCc3ccc(F)cc3)c2)nc1 [Compound 221b]", 28],
  ["CC(C)(C)N(Cc1ccc(C#N)cc1)Cc1cccc(C(=O)Nc2ccc(C#N)cc2)c1 [Compound 225h, hydrochloride]", 28],
  ["N#Cc1ccc(NC(=O)c2cccc(OCc3ccc(C(F)(F)F)cc3)c2)cc1 [Compound 216j]", 67],
  ["N#Cc1ccc(NC(=O)c2cccc(OCc3ccc(F)c(F)c3)c2)cc1 [Compound 216z]", 64],
  ["C[S+]([O-])c1ccc(COc2cccc(C(=O)Nc3ccc(C#N)cc3)c2)cc1 (centres unmarked) [Compound 216e]", 32]
]}

Provide value of inhibition at 10 µM for this record tested with SIRT2 (Homo sapiens, UniProt Q8IXJ6): Cc1cc(F)ccc1NC(=O)c1cccc(S(=O)(=O)N(C)c2ccc(Br)cc2)c1 [Compound 203o] 14

---

measurement_notes: Microsomal stability screen, mouse
assay_conditions: 1 μM
outcome_measure: Mean remaining parent NADPH-free (%)
Respond numerically; units are % and should not be typed.

Solved cases below.
{"columns": ["smiles_entry", "Mean remaining parent NADPH-free (%)"],
 "data": [
  ["N#Cc1ccc(NC(=O)c2cccc(S(=O)(=O)Cc3ccc(Cl)cc3)c2)cc1", 100],
  ["CC(=O)c1ccc(N(C)S(=O)(=O)c2cccc(C(=O)Nc3ccc(Cl)cn3)c2)cc1", 91],
  ["CN(c1ccc(Cl)cc1)S(=O)(=O)c1cccc(C(=O)Nc2ccc(S(C)(=O)=O)cc2)c1", 100],
  ["CC(=O)c1ccc(N(C)S(=O)(=O)c2cccc(C(=O)Nc3ccc(Cl)cc3)c2)cc1", 108],
  ["COc1ccc(N(C)S(=O)(=O)c2cccc(C(=O)Nc3ccc(C#N)cc3)c2)cc1", 90]
]}

So what's the measured Mean remaining parent NADPH-free (%) for this one? "CN(c1ccc(Cl)cc1)S(=O)(=O)c1cccc(C(=O)Nc2ccc(C#N)cn2)c1" 96

---

system_under_test: SIRT2 (Homo sapiens, UniProt Q8IXJ6)
Construct: recombinant active enzymes SIRT1, SIRT2, and the catalytically active fragment of SIRT3
measurement_notes: Fluor-de-Lys biochemical sirtuin deacetylation assay, SIRT2
assay_conditions: 10 μM
Counter-ions that a name gives are not always drawn.
inhibition at 10 µM vs 30%: at or above is Condition met, below is Condition not met.

{"columns": ["compound", "qualitative_label"],
 "data": [
  ["CC(=O)c1ccc(C(C)Oc2cccc(C(=O)Nc3ccc(F)cc3)c2)cc1 (centres unmarked) [Compound 216Aw]", "Condition met"],
  ["N#Cc1ccc(NC(=O)c2cccc(NCc3ccc(F)cc3)c2)cc1 [Compound 221a]", "Condition met"],
  ["COc1ccc(CSc2cccc(C(=O)Nc3ccc(C#N)cn3)c2)cc1 [Compound 211d]", "Condition met"]
]}

inhibition at 10 µM >= 30% for CN(c1ccc(Cl)cc1)S(=O)(=O)c1cccc(NC(=O)c2ccc(Br)cc2)c1 [Compound 207a] ? Condition not met

And for CN(c1ccc(CN)cc1)S(=O)(=O)c1cccc(C(=O)Nc2ccc(C#N)cc2)c1.Cl [Compound 203Af, hydrochloride] ? Condition not met

Next compound up: CC(Oc1cccc(C(=O)Nc2ccc(C#N)cc2)c1)c1ccc(C2(C)COC2)cc1 (centres unmarked) [Compound 216Aj] Condition met

Would you mind doing N#Cc1ccc(NC(=O)c2cccc(CN3CCc4cc(Br)ccc4C3)c2)cc1 [Compound 225q, hydrochloride] as well? Condition met

Next record, please: CN(C(=O)c1cccc(S(=O)(=O)N(C)c2ccc(S(C)(=O)=O)cc2)c1)c1ccc(Cl)cc1F [Compound 203Ah] Condition not met
